Cited source: ChEMBL document CHEMBL3856275

# protocol: Clearance in Sprague-Dawley rat at 1 mg/kg, iv or 3 mg/kg, po
# Format: ADME, organism-based
# measurement_context: in vivo
parameter: clearance (mL/min/kg)

INSERT INTO assay_data (compound, observed_result) VALUES
  ('N#C[C@H](Cc1ccc(-c2ccc3oc(=O)n(CC(F)F)c3c2)cc1)NC(=O)[C@@H]1CNCCCO1', 4),
  ('Cn1c(=O)oc2ccc(-c3ccc(C[C@@H](C#N)NC(=O)[C@@H]4CNCCCO4)cc3)cc21 [BRENSOCATIB]', 1),
  ('Cc1cc(-c2ccc(C[C@@H](C#N)NC(=O)[C@@H]3CNCCCO3)cc2)cc2c1oc(=O)n2C', 1),
  ('CCn1c(=O)oc2ccc(-c3ccc(C[C@@H](C#N)NC(=O)[C@@H]4CNCCCO4)cc3)cc21', 4),
  ('Cn1c(=O)sc2ccc(-c3ccc(C[C@@H](C#N)NC(=O)[C@@H]4CNCCCO4)cc3)cc21', 3);

* * *

# system: Dipeptidyl peptidase 1 (Homo sapiens)
# Sequence (P53634 25-134 limits assumed): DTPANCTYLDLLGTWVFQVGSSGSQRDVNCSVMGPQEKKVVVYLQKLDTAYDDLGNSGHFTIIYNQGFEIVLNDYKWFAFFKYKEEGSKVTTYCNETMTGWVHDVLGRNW
# Sequence (P53634 231-394 limits assumed): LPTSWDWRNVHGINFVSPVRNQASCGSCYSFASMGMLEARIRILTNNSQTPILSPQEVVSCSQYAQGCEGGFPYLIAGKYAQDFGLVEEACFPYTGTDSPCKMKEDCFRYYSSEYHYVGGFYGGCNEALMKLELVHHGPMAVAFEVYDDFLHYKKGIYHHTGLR
# Sequence (P53634 395-463 limits assumed): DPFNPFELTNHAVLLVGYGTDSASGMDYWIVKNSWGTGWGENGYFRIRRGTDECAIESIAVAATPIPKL
# protocol: Inhibition of DPP1 in human U937 cells using Gly-Phe-AFC as substrate preincubated for 60 mins followed by substrate addition by fluorescence assay
# Format: cell-based, U-937
In plain terms, low IC50, meaning strictly below 40 nM, gives condition met, and everything else gives condition not met.

INSERT INTO measurements (molecule, group_label) VALUES
  ('N#Cc1ccc(-c2ccc(C[C@@H](C#N)NC(=O)[C@@H]3CNCCO3)cc2)cc1', 'condition not met'),
  ('N#Cc1ccc(-c2ccc(C[C@@H](C#N)NC(=O)[C@H]3CCCC[C@@H]3N)cc2)cc1', 'condition not met'),
  ('CN1C(=O)C(F)(F)c2ccc(-c3ccc(C[C@@H](C#N)NC(=O)[C@@H]4CNCCCO4)cc3)cc21', 'condition met'),
  ('CN1C(=O)COc2ccc(-c3ccc(C[C@@H](C#N)NC(=O)[C@@H]4CNCCCO4)cc3)cc21', 'condition met'),
  ('N#Cc1ccc(-c2ccc(C[C@@H](C#N)NC(=O)C3CCCCNC3)cc2)cc1 (mixture of isomers)', 'condition not met'),
  ('N#Cc1ccc(-c2ccc(C[C@@H](C#N)NC(=O)[C@@H]3CCC[C@@H]3N)cc2)cc1', 'condition not met'),
  ('N#C[C@H](Cc1ccc(-c2ccc3oc(=O)n(CC(F)F)c3c2)cc1)NC(=O)[C@@H]1CNCCCO1', 'condition met'),
  ('N#Cc1ccc(-c2ccc(C[C@@H](C#N)NC(=O)[C@@H]3CNCCCO3)cc2)cc1', 'condition met'),
  ('Cn1c(=O)ccc2ccc(-c3ccc(C[C@@H](C#N)NC(=O)[C@@H]4CNCCCO4)cc3)cc21', 'condition met'),
  ('Cc1cc(-c2ccc(C[C@@H](C#N)NC(=O)[C@@H]3CNCCCO3)cc2)cc2c1oc(=O)n2C', 'condition met'),
  ('N#C[C@H](Cc1ccc(-c2ncc(C(F)(F)F)cn2)cc1)NC(=O)[C@@H]1CNCCCO1', 'condition not met'),
  ('CN1C(=O)Cc2ccc(-c3ccc(C[C@@H](C#N)NC(=O)C4(N)CCOCC4)cc3)cc21', 'condition met'),
  ('Cc1noc2ccc(-c3ccc(C[C@@H](C#N)NC(=O)[C@@H]4CNCCCO4)cc3)cc12', 'condition met'),
  ('N#Cc1ccc(-c2ccc(C[C@@H](C#N)NC(=O)[C@@H]3CCCC[C@H]3N)cc2)cc1', 'condition not met'),
  ('N#Cc1ccc(-c2ccc(C[C@@H](C#N)NC(=O)[C@@H]3CCCCC[C@@H]3N)cc2)cc1', 'condition met'),
  ('Cn1c(=O)sc2ccc(-c3ccc(C[C@@H](C#N)NC(=O)[C@@H]4CNCCCO4)cc3)cc21', 'condition met');
